What change in vivo at 128 mg/kg was measured for each of the following?
System: mice
Test: tail hanging test, activity on the S.N.C. (central nervous system), mice, oral
Assay type: in vivo, mouse
Settings: Mus musculus, po, 1 h, Dose: 128 mg/kg, 1 hour before the test, read-out: S.N.C.: Hanging test, activity percentages compared with the controls
Give bare numbers, in %.

Worked cases, change in vivo at 128 mg/kg given:
> print(dat)
                                   compound  tested.on  endpoint.result
1  CC(N)(CO)Cc1ccc(Cl)c(Cl)c1 (racemic) [JO 1275]       mice              -86
2  CCCCCC(CO)(Cc1ccc(Cl)c(Cl)c1)N(C)C (racemic) [JO 1564]       mice              -74
3  CN(C)CCCN1c2ccccc2CCc2ccc(Cl)cc21 [Clomipramine, clomipramine, reference compound]       mice              -54

# evaluate next
For this compound ( CN(C)C(C)(CO)Cc1ccc(Cl)c(Cl)c1 (racemic) [JO 1017] ), measured change in vivo at 128 mg/kg is -85
